Target: human recombinant WT BTK (Homo sapiens, UniProt Q06187)
Sequence (Q06187 whole entry): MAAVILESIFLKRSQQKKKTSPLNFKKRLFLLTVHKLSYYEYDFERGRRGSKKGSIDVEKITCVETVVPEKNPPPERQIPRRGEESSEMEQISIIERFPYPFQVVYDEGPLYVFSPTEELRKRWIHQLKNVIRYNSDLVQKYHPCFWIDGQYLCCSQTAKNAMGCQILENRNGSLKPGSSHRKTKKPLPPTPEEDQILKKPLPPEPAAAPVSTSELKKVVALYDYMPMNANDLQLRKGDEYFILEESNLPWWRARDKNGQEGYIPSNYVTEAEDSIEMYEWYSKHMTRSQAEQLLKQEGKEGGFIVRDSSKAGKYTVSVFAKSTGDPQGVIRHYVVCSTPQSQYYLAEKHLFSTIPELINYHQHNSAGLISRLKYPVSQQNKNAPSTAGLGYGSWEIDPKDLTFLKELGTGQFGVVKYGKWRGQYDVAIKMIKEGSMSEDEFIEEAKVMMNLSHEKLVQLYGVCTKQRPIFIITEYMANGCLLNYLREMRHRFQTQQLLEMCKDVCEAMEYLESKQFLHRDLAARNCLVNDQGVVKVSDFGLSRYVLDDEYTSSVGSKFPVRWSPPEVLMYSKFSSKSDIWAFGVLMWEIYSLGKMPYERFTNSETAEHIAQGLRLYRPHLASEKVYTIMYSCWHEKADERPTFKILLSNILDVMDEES
Test: FRET recombinant kinase assay, WT BTK
quantityMeasured: pIC50
Entry type: numeric. Quantity: pIC50, the -log10 of concentration in molar units.

I would be grateful if you could share the reported pIC50 for `NC(=O)[C@H]1CCN(c2ncnc(N)c2F)C[C@@H]1N1CCC[C@@H](Nc2cc(Cl)cc(C(F)(F)F)c2)C1=O` . 8.34

---

Assay: Solubility of Compound 2 in solvent systems (slurries, HPLC)
Assay type: physicochemical
Details: organic solvent or mixture, thermodynamic from solid; 2-propanol; after one day at 20° C.
quantityMeasured: solubility at 1 day (mg/mL)
Field: numeric (mg/mL). Do not append units.

I would be grateful if you could share the reported solubility at 1 day for `NC(=O)[C@H]1CCN(c2ncnc(N)c2F)C[C@@H]1N1CCC[C@@H](Nc2cc(Cl)cc(C(F)(F)F)c2)C1=O` . 11

---

Experiment: Phase 1a study Stage 2: food effect on pharmacokinetics
Assay type: in vivo, human
Conditions: both sexes, human, plasma; 200 mg oral, fed vs fasted, 12 subjects; read-out: delay of Tmax in fed state
Experimental: In Stage 2, the effects of food on the pharmacokinetics of Compound 2 were assessed. In this stage, 12 newly enrolled subjects (6 males, 6 females; Cohort 6) were administered Compound 2 on two separate occasions, either in a fasting or fed state, with a period of ≥72 hours between the two doses. The Compound 2 dose level was 200 mg. […] The effects of food on the pharmacokinetics of Compound 2 were assessed after oral administration of 200 mg Compound 2 to 12 subjects in the fed and fasted states. […]
quantityMeasured: Tmax

I would be grateful if you could share the reported Tmax for `NC(=O)[C@H]1CCN(c2ncnc(N)c2F)C[C@@H]1N1CCC[C@@H](Nc2cc(Cl)cc(C(F)(F)F)c2)C1=O` . 2 h

---

Experiment: Single-dose PK in monkey
Type: in vivo
Settings: male, cynomolgus monkey, plasma, 5 mg/kg, PO, dose 5, 0.1% CMC/0.2% Tween, free base measured
quantityMeasured: AUC(0-inf)
Don't forget the unit after the number, please.

I would be grateful if you could share the reported AUC(0-inf) for `NC(=O)[C@H]1CCN(c2ncnc(N)c2F)C[C@@H]1N1CCC[C@@H](Nc2cc(Cl)cc(C(F)(F)F)c2)C1=O` . 3220 ng·h/mL

---

Experiment: Single-dose PK in dog
Assay type: in vivo, male beagle dogs
Details: beagle, plasma, 1 mg/kg, IV, dose 1, 70% PEG400/H2O, free base measured
Procedure: A series of single-dose PK studies were conducted in rat, dog, and monkey to investigate the plasma PK of Compound 2 following single oral and single intravenous (IV) administration of Compound 2. A study was conducted to assess the PK of Compound 2 formulated as a suspension or as a solid in capsule. […] Three different dogs were used for each dose level. […]
quantityMeasured: C0
Don't forget the unit after the number, please.

I would be grateful if you could share the reported C0 for `NC(=O)[C@H]1CCN(c2ncnc(N)c2F)C[C@@H]1N1CCC[C@@H](Nc2cc(Cl)cc(C(F)(F)F)c2)C1=O` . 1920 ng/mL

---

Experiment: Single-dose PK in rat
Format: in vivo, male Sprague Dawley rats
Settings: male, Sprague Dawley, plasma, 5 mg/kg, PO, dose 5, 0.1% CMC/0.2% Tween, free base measured
quantityMeasured: Cmax
Don't forget the unit after the number, please.

I would be grateful if you could share the reported Cmax for `NC(=O)[C@H]1CCN(c2ncnc(N)c2F)C[C@@H]1N1CCC[C@@H](Nc2cc(Cl)cc(C(F)(F)F)c2)C1=O` . 1780 ng/mL

---

Assay: Phase 1a single-dose study in humans, Stage 1: pharmacokinetics
Type: in vivo, human
Conditions: both sexes, human, plasma, oral; Cohort 4 (300 mg); mean (SD), N 6
quantityMeasured: Cmax (ng/mL)
Field: numeric (ng/mL). Do not append units.

I would be grateful if you could share the reported Cmax for NC(=O)[C@H]1CCN(c2ncnc(N)c2F)C[C@@H]1N1CCC[C@@H](Nc2cc(Cl)cc(C(F)(F)F)c2)C1=O [Compound 1] . 6800

---

Experiment: Solubility of Compound 2 in solvent systems (slurries, HPLC)
Format: physicochemical
Settings: organic solvent or mixture, thermodynamic from solid; Cyclohexanone; after one day at 20° C.
quantityMeasured: solubility at 1 day (mg/mL)
Field: numeric (mg/mL). Do not append units.

I would be grateful if you could share the reported solubility at 1 day for NC(=O)[C@H]1CCN(c2ncnc(N)c2F)C[C@@H]1N1CCC[C@@H](Nc2cc(Cl)cc(C(F)(F)F)c2)C1=O [Compound 2] . 16

---

Biological target: CYP3A4 (Homo sapiens)
Construct: from tissue; host or cells: human subjects in vivo
Sequence (P08684 whole entry): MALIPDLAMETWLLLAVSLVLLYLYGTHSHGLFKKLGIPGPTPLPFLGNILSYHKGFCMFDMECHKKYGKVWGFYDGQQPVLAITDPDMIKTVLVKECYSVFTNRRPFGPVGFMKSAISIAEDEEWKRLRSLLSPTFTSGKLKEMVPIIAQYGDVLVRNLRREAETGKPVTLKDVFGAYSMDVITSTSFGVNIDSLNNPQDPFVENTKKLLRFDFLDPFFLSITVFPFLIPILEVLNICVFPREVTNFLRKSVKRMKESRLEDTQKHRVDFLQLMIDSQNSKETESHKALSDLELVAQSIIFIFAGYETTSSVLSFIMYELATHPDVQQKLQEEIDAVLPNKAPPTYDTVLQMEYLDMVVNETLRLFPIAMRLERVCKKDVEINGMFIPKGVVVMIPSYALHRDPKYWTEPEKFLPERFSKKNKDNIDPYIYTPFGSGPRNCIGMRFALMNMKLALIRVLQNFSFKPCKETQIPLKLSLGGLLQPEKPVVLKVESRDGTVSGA
Assay: Phase 1a study Stage 3: drug-drug interaction with itraconazole (effect of CYP3A4 inhibition)
Format: in vivo
Conditions: human, plasma, oral; Compound 2 25 mg fasted; arithmetic mean (CV %)
quantityMeasured: AUC(0-t) (ng·h/mL)
Field: numeric (ng·h/mL). Do not append units.

I would be grateful if you could share the reported AUC(0-t) for `NC(=O)[C@H]1CCN(c2ncnc(N)c2F)C[C@@H]1N1CCC[C@@H](Nc2cc(Cl)cc(C(F)(F)F)c2)C1=O` . 4420

---

Assay: Phase 1a single-dose study in humans, Stage 1: pharmacokinetics
Assay type: in vivo, human
Settings: both sexes, human, plasma, oral; Cohort 1 (50 mg); mean (SD)
quantityMeasured: Vd/F
Don't forget the unit after the number, please.

I would be grateful if you could share the reported Vd/F for `NC(=O)[C@H]1CCN(c2ncnc(N)c2F)C[C@@H]1N1CCC[C@@H](Nc2cc(Cl)cc(C(F)(F)F)c2)C1=O` . 69.6 L

---

Assay: Phase 1a single-dose study in humans, Stage 1: pharmacokinetics
Type: in vivo, human
Settings: both sexes, human, plasma, oral; 50 mg (single dose), after dosing with Compound 2; mean
quantityMeasured: Cmax

I would be grateful if you could share the reported Cmax for `NC(=O)[C@H]1CCN(c2ncnc(N)c2F)C[C@@H]1N1CCC[C@@H](Nc2cc(Cl)cc(C(F)(F)F)c2)C1=O` . 1910 ng/mL
